Parameter: melting point. Scope: all listed entries.
observed property: melting point

- CCCCCCCCCNc1c(F)c(SCCc2ccc(C(=O)O)cc2)c(F)c(F)c1S(N)(=O)=O: 66 to 67 °C
- CCC(C)C(C)CCNc1c(F)c(SCc2ccc(C(=O)O)cc2)c(F)c(F)c1S(N)(=O)=O (stereo not drawn): 133 °C
- CCCCCCCCNc1c(F)c(SCCc2ccc(C(=O)O)cc2)c(F)c(F)c1S(N)(=O)=O: 69 to 71 °C
- NS(=O)(=O)c1c(F)c(F)c(Sc2ccc(CC(=O)O)cc2)c(F)c1NC1CCCCCCCCCCC1: 148 to 150 °C
- NS(=O)(=O)c1c(F)c(F)c(SCc2ccc(C(=O)O)cc2)c(F)c1NCC1CCCCCCC1: 157 to 158 °C
- CCCCCCNc1c(F)c(SCCc2ccc(C(=O)O)cc2)c(F)c(F)c1S(N)(=O)=O: 110 to 112 °C
- NS(=O)(=O)c1c(F)c(F)c(SCCc2ccc(C(=O)O)cc2)c(F)c1NC1CCCCCCC1: 166 to 168 °C
- NS(=O)(=O)c1c(F)c(F)c(SCc2ccc(C(=O)O)cc2)c(F)c1NC1CCCCCCCCCCC1: 190 to 191 °C
- NS(=O)(=O)c1c(F)c(F)c(Sc2cccc(C(=O)O)c2)c(F)c1NC1CCCCCCCCCCC1: 123 to 125 °C
- NS(=O)(=O)c1c(F)c(F)c(Sc2ccccc2C(=O)O)c(F)c1NC1CCCCCCCCCCC1: 85 °C
- CCCCCCCNc1c(F)c(SCCc2ccc(C(=O)O)cc2)c(F)c(F)c1S(N)(=O)=O: 66 to 68 °C
- NS(=O)(=O)c1c(F)c(F)c(SCc2ccc(C(=O)O)cc2)c(F)c1NC1CCCCCCCCC1: 176 °C
- CCCC(CCC)CCNc1c(F)c(SCc2ccc(C(=O)O)cc2)c(F)c(F)c1S(N)(=O)=O: 149 °C
- NS(=O)(=O)c1c(F)c(F)c(SCc2cccc(C(=O)O)c2)c(F)c1NC1CCCCCCCCCCC1: 109 to 111 °C
- NS(=O)(=O)c1c(F)c(F)c(Sc2ccc(C(=O)O)cc2)c(F)c1NC1CCCCCCCCCCC1: 186 to 188 °C

Sourced from patent US20240000736A1
